- target: T1, human VEGF (human, UniProt P15692 207-395, biotinylated (site not stated))
- T1 construct: Biotinylated human VEGF generated internally; also called hVEGF; hVEGF-biotin
- T1 sequence: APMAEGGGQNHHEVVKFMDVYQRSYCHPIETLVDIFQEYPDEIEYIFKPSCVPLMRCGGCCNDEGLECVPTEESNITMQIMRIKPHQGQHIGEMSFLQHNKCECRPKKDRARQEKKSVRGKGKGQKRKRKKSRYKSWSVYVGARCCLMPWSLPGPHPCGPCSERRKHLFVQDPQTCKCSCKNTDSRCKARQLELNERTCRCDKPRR
- experiment notes: Biacore SPR, hVEGF
measured endpoint: kon

Worked cases, answers included:
| binder | measured endpoint | value reported |
| --- | --- | --- |
| HC1.1T (Fab, V domains shown, Tagged heavy chain CDR variant HC1.1 with NVS4 light chain) VH: EVQLVESGGGLVQPGGSLRLSCTASGFSLTSYYYMTWVRQAPGKGLEWVGFIDPQNNPYYATWAKGRFTISRDNSKNTLYLQMNSLRAEDTAVYYCAGGDHNSGWGLNIWGQGTLVTVSS VL: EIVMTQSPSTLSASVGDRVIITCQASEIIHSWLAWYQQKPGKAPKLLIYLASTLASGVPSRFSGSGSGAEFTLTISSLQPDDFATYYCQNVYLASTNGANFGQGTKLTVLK | kon | 1.1e+08 M⁻¹ s⁻¹ |
| NVS4 light chain variant S95K (Fab, V domains shown, CDR variant of NVS4) VH: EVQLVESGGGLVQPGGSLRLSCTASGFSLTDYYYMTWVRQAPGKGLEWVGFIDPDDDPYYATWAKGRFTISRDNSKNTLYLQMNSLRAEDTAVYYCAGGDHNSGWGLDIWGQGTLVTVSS VL: EIVMTQSPSTLSASVGDRVIITCQASEIIHSWLAWYQQKPGKAPKLLIYLASTLASGVPSRFSGSGSGAEFTLTISSLQPDDFATYYCQNVYLAKTNGANFGQGTKLTVLK | kon | 5.88e+06 M⁻¹ s⁻¹ |

So what's the measured kon for this one? NVS4 heavy chain variant D31N (Fab, V domains shown, CDR variant of NVS4) VH: EVQLVESGGGLVQPGGSLRLSCTASGFSLTNYYYMTWVRQAPGKGLEWVGFIDPDDDPYYATWAKGRFTISRDNSKNTLYLQMNSLRAEDTAVYYCAGGDHNSGWGLDIWGQGTLVTVSS VL: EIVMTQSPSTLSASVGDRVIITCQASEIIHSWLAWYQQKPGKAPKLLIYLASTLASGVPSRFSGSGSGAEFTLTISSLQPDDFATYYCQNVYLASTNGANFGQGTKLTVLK 1.15e+07 M⁻¹ s⁻¹
